Target: recombinant DYRK1A kinase (Homo sapiens (Human), UniProt Q13627)
Test: DYRK1A kinase assay (Ser/Thr 18 peptide Z-lyte FRET)
Details: DYRK1A kinase activity, Z-lyte Ser/Thr 18 peptide, 15 μM ATP; method text calls the value IC50; read-out: EC50 (the source's name)
# IC50 values compiled below
quantityKind: IC50 (nM)

COc1nc(N[C@H]2C[C@@](C)(NC(C)=O)C2)nn2ccc(-c3cc(F)c4nc(C)n(CC(F)F)c4c3)c12 [Compound 148]	1.8
COc1nc(N[C@H]2C[C@](C)(N)C2)nn2ccc(-c3ccc4ncnn4c3)c12 [Compound 190]	11.5
CCC(=O)N1CC[C@H](Nc2nc(OC)c3c(-c4ccc5nnn(CC(F)F)c5c4)ccn3n2)[C@H](F)C1 [Compound 773]	0.7
COc1nc(N[C@H]2CC[C@](C)(O)CC2)nn2ccc(-c3cc(F)c4nc(C)n(C(C)C)c4c3)c12 [Compound 168]	2.7
COc1nc(N[C@@H]2CCC[C@@H]2O)nn2ccc(-c3cnc4nccn4c3)c12 [Compound 942]	18.9
CNC(=O)c1cnc2ccc(-c3ccn4nc(NC5CCC6(CC5)COC6)nc(OC)c34)cn12 [Compound 107]	0.9
COc1nc(N[C@H]2CCN(C3(C#N)COC3)C[C@H]2F)nn2ccc(-c3ccc4nnn(CC(F)F)c4c3)c12 [Compound 769]	2.9

Value source: patent US20240002391A1
